Biological target: androgen receptor (AR) (Homo sapiens, UniProt P10275, T878A)
Construct: LNCaP cells expressing ARR2PB-FireflyLuc and CMV-RenillaLuc; endogenous in cells; host or cells: LNCaP cells carrying ARR2PB-FireflyLuc and CMV-RenillaLuc reporters
Sequence (P10275 1-920 T878A): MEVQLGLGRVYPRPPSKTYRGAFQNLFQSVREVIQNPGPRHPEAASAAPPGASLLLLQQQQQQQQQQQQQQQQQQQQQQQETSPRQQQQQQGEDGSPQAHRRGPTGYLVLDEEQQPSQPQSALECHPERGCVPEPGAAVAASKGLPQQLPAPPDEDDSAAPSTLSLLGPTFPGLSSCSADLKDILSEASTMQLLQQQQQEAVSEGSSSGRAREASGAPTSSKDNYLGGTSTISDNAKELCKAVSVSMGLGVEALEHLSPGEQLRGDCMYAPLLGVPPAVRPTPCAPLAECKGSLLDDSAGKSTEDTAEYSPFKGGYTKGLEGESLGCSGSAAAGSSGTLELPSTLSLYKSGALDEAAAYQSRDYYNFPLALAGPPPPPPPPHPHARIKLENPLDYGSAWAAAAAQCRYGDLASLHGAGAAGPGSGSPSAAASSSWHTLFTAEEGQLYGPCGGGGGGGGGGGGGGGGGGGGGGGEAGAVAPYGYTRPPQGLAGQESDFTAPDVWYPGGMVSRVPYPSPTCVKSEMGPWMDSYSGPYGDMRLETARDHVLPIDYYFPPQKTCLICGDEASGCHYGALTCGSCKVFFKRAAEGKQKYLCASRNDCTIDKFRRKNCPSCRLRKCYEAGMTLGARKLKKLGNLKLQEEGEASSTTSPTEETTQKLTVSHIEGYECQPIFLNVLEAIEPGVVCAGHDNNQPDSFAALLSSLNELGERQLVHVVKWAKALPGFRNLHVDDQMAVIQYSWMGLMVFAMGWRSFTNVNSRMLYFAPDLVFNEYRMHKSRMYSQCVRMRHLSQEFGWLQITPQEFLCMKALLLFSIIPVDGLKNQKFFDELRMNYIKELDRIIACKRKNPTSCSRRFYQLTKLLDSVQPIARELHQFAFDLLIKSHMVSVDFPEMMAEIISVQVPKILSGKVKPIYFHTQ
Test: AR reporter assay in LNCaP cells expressing ARR2PB-FireflyLuc and CMV-RenillaLuc, antagonist mode (% remaining activity, IC50)
Assay type: cell-based
Details: 48 h at 37° C., class symbols A-D, read-out: IC50
Quick reference for IC50 among some molecules

| molecule | IC50 |
| --- | --- |
| CC1(C)CCNc2ccc(-c3n[nH]c4ccc(F)cc34)nc21 [Compound 78] | 100 to 1000 nM |
| N#Cc1cccc2c(-c3ccc(N)c(OC(F)F)n3)c[nH]c12 [Compound 192] | 100 to 1000 nM |
| CC1CCNc2cnc(-c3n[nH]c4cc(F)c(F)cc34)cc21 (centres unmarked) [Compound 49] | 1000 to 10000 nM |
| Fc1cc2[nH]nc(-c3ccc4ncccc4n3)c2cc1F [Compound 26] | < 100 nM |
| CC1CNc2ccc(-c3n[nH]c4cc(F)c(F)cc34)nc2O1 (centres unmarked) [Compound 70] | > 10000 nM |

Asked: State the recorded IC50 for this entry: Cc1nc(-c2c[nH]c3cccnc23)ccc1N [Compound 134]
Given back: > 10000 nM

Asked: What about CC1NC(=O)c2ccc(-n3cnc4cc(F)c(F)cc43)nc21 (centres unmarked) [Compound 108] ?
Given back: > 10000 nM

---

target: androgen receptor (AR) (Homo sapiens, UniProt P10275, T878A); construct: LNCaP cells expressing ARR2PB-FireflyLuc and CMV-RenillaLuc; endogenous in cells; host or cells: LNCaP cells carrying ARR2PB-FireflyLuc and CMV-RenillaLuc reporters; assay: AR reporter assay in LNCaP cells expressing ARR2PB-FireflyLuc and CMV-RenillaLuc, antagonist mode (% remaining activity, IC50); format: cell-based; settings: 48 h at 37° C., class symbols A-D, read-out: IC50
metric name: IC50

These recorded examples may help you get a feel for the data.
| compound | IC50 |
| --- | --- |
| Cc1nc(-c2c[nH]c3c(C#N)cccc23)cnc1O[C@H]1CCN[C@@H]1C | 1000 to 10000 nM |
| CC(C)NCc1cccc2c(-c3ccc4ncccc4n3)n[nH]c12 | 1000 to 10000 nM |
| CCOc1nc(-c2c[nH]c3c(C#N)cccc23)cnc1NC1CCNC1 (stereo not drawn) | 1000 to 10000 nM |
| FC(F)(F)c1ccc(-c2c[nH]c3ccccc23)nc1 | 100 to 1000 nM |
| COCCNc1ccc(-c2c[nH]c3c(C#N)cccc23)nc1C | 100 to 1000 nM |

Asked: Query: IC50; subject: CC1(C)NC(=O)c2cnc(-c3c[nH]c4c(C#N)cccc34)cc21
Given back: > 10000 nM

Asked: What about this compound? CC(=O)N1C[C@@H](F)[C@H](Oc2ncc(-c3c[nH]c4c(C#N)cccc34)nc2C)C1
Given back: 100 to 1000 nM

Asked: // next record Cc1nc(-c2c[nH]c3c(C#N)cccc23)cnc1O
Given back: 1000 to 10000 nM

Asked: Likewise for Cc1nc(-c2c[nH]c3c(S(C)(=O)=O)cccc23)ccc1N ?
Given back: > 10000 nM

---

Listed here: items and their measured pIC50.
target: androgen receptor (AR) (Homo sapiens, UniProt P10275, T878A); construct: LNCaP cells expressing ARR2PB-FireflyLuc and CMV-RenillaLuc; endogenous in cells; host or cells: LNCaP cells carrying ARR2PB-FireflyLuc and CMV-RenillaLuc reporters; assay: AR reporter assay in LNCaP cells expressing ARR2PB-FireflyLuc and CMV-RenillaLuc, antagonist mode (% remaining activity, IC50); type: cell-based; conditions: 48 h at 37° C., class symbols A-D, read-out: IC50
pIC50: −log10 of the molar value.

Solved entries (count: 10):
| compound | test value |
| --- | --- |
| Cc1nc(-c2c[nH]c3c(C#N)cccc23)cnc1OCC(C)O (stereo not drawn) | 5.00 to 6.00 |
| COc1ccc(-c2n[nH]c3cc(F)c(F)cc23)nc1C | 6.00 to 7.00 |
| N#Cc1cccc2c(-c3ccc4ccc(F)cc4n3)n[nH]c12 | > 7.00 |
| c1cc2c(nc1-c1n[nH]c3c1COCC3)CCCN2 | < 5.00 |
| Cc1nc(-c2c[nH]c3c(Cl)cccc23)cnc1O[C@@H]1CNC[C@H]1F | 6.00 to 7.00 |
| COCC(C)Nc1ccc(-c2c[nH]c3c(C#N)cccc23)nc1C (stereo not drawn) | 6.00 to 7.00 |
| Cc1nc(-c2c[nH]c3c(C#N)cccc23)cnc1N(C)CC(C)(C)O | 5.00 to 6.00 |
| Cc1nc(-c2c[nH]c3c(C#N)cccc23)cnc1O[C@H]1CN[C@@H](C)C1 | < 5.00 |
| Fc1cc2[nH]nc(-c3ccc4c(n3)CCCN4)c2cc1F | 6.00 to 7.00 |
| CC(=O)N1CCC(Oc2ncc(-c3c[nH]c4c(C#N)cccc34)nc2Cl)C1 (stereo not drawn) | 6.00 to 7.00 |

Asked: Reported pIC50, compound CC(=O)N1CCC(Oc2cnc(-c3c[nH]c4c(C#N)cccc34)cn2)C1 (stereo not drawn) : ____
Given back: 5.00 to 6.00

Asked: // same read-out, input: CC1(C)NC(=O)c2ccc(-c3c[nH]c4c(C(F)(F)F)cccc34)nc21
Given back: > 7.00

---

target: androgen receptor (AR) (Homo sapiens, UniProt P10275, T878A); construct: LNCaP cells expressing ARR2PB-FireflyLuc and CMV-RenillaLuc; endogenous in cells; host or cells: LNCaP cells carrying ARR2PB-FireflyLuc and CMV-RenillaLuc reporters; assay: AR reporter assay in LNCaP cells expressing ARR2PB-FireflyLuc and CMV-RenillaLuc, antagonist mode (% remaining activity, IC50); type: cell-based; conditions: 48 h at 37° C., class symbols A-D, read-out: IC50
The following molecules are listed with their measured IC50 values.

| molecule | metric name | test value |
| --- | --- | --- |
| Fc1cc2[nH]nc(-c3ccnc4cccnc34)c2cc1F | IC50 | 1 to 10 µM |
| Cc1cc(C#N)c2[nH]cc(-c3ccc(N)c(C)n3)c2c1 | IC50 | 1 to 10 µM |
| CC1NC(=O)c2ccc(-c3nn(C)c4cc(F)c(F)cc34)nc21 (centres unmarked) | IC50 | > 10 µM |
| c1ccc2c(-c3ccc4c(n3)CCCN4)n[nH]c2c1 | IC50 | 0.1 to 1 µM |

Next:
Asked: Request the reported IC50 associated with Cc1cccc(-c2c[nH]c3ccc(C#N)cc23)n1
Given back: 1 to 10 µM

---

Listed here are molecules together with their documented IC50.
molecular target: androgen receptor (AR) (Homo sapiens, UniProt P10275, T878A); construct: LNCaP cells expressing ARR2PB-FireflyLuc and CMV-RenillaLuc; endogenous in cells; host or cells: LNCaP cells carrying ARR2PB-FireflyLuc and CMV-RenillaLuc reporters; experiment: AR reporter assay in LNCaP cells expressing ARR2PB-FireflyLuc and CMV-RenillaLuc, antagonist mode (% remaining activity, IC50); format: cell-based; conditions: 48 h at 37° C., class symbols A-D, read-out: IC50

Example entries and their recorded answers appear below.
| molecule | IC50 |
| --- | --- |
| CC(=O)N1CCC(Oc2ncc(-c3c[nH]c4c(Cl)cccc34)nc2C)C1 (centres unmarked) | 100 to 1000 nM |
| Fc1cc2[nH]nc(-c3cnc4c(n3)CCCN4)c2cc1F | > 10000 nM |
| CC1c2nc(-c3n[nH]c4cc(F)c(F)cc34)ccc2C(=O)N1C (centres unmarked) | 100 to 1000 nM |

Asked: Any idea what IC50 came out for COc1nc(-c2c[nH]c3c(C#N)cccc23)cnc1NC1CCNC1 (centres unmarked) on androgen receptor (AR) (Homo sapiens, UniProt P10275, T878A)?
Given back: 100 to 1000 nM

Asked: Then what about the molecule COc1nc(-c2n[nH]c3cc(F)c(F)cc23)ccc1N ?
Given back: 100 to 1000 nM

Asked: Another: CC(=O)N1CCC(Oc2ncc(-c3c[nH]c4ncccc34)nc2C)C1 (centres unmarked)
Given back: > 10000 nM

Asked: Repeat with Fc1ccc(-c2n[nH]c3cc(F)ccc23)nc1
Given back: 100 to 1000 nM
